Test system: BV-2
Experiment: Cytotoxicity against mouse BV2 cells assessed as cell viability up to 5 uM incubated for 24 hrs by CCK-8 assay
Assay type: cell-based
Conditions: bv-2, 24 h
MEASURED ENDPOINT: Activity

1. CCCCCCCCCCCCCCCCOC(=O)NCCSC[C@H](NC(=O)CCCCCCCCCCCCCCC)C(=O)N[C@@H](CO)C(=O)N[C@@H](CCCCN)C(=O)N[C@@H](CCCCN)C(=O)N[C@@H](CCCCN)C(=O)O ... Non-Toxic
2. CCCCCCCCCCCCCCCC(=O)N[C@@H](CSCCOC(=O)CCCCCCCCCCCCCCC)C(=O)N[C@@H](CO)C(=O)N[C@@H](CCCCN)C(=O)N[C@@H](CCCCN)C(=O)N[C@@H](CCCCN)C(=O)N[C@@H](CCCCN)C(=O)O ... Non-Toxic
3. CCCCCCCCCCCCCCCCOC(=O)NCCSC[C@H](NC(=O)CCCCCCCCCCCCCCC)C(=O)N[C@@H](CO)C(=O)N[C@@H](CCCCN)C(=O)N[C@@H](CCCCN)C(=O)N[C@@H](CCCCN)C(=O)N[C@@H](CCCCN)C(=O)O ... Non-Toxic
4. CCCCCCCCCCCCCCCCOC(=O)NCCSC[C@H](NC(=O)NCCCCCCCCCCCCCC)C(=O)N[C@@H](CO)C(=O)N[C@@H](CCCCN)C(=O)N[C@@H](CCCCN)C(=O)N[C@@H](CCCCN)C(=O)N[C@@H](CCCCN)C(=O)O ... Non-Toxic
